Provenance of the data: ChEMBL document CHEMBL3734756

System: Leishmania donovani
Test: Antileishmanial activity against amastigote stage of Leishmania donovani infected in mouse J774A.1 cells after 72 hrs by luciferase reporter gene assay
Assay type: functional, organism-based
Conditions: J774.A1, 72 h
Observed property: pIC50
pIC50 here is simply -log10 of the concentration when that concentration is written in mol/L.

Example compounds with recorded pIC50:
>>> assay_result("COC(=O)c1cc2c([nH]c3ccccc32)c(C2Nc3ccccc3C(=O)N2Cc2ccc(OC)cc2)n1 (configuration not stated)")
4.45
>>> assay_result("CCCCCCCCCCCCCCCCOP(=O)([O-])OCC[N+](C)(C)C [MILTEFOSINE]")
5.09
>>> assay_result("COC(=O)c1cc2c([nH]c3ccccc32)c(C2Nc3ccccc3C(=O)N2c2ccc(Cl)cc2)n1 (configuration not stated)")
5.36

Entry COC(=O)c1cc2c([nH]c3ccccc32)c(C2Nc3ccccc3C(=O)N2Cc2ccc(Cl)c(Cl)c2)n1 (configuration not stated) , Leishmania donovani data, pIC50 value: 5.37

Item: COC(=O)c1cc2c([nH]c3ccccc32)c(C2Nc3ccccc3C(=O)N2c2ccc(F)cc2)n1 (configuration not stated) | System: Leishmania donovani | pIC50: 5.22
